- ASSAY TARGET: c-Src SH2;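 note: peptide library displayed on the E. coli surface as eCPX fusions, selected cells deep-sequenced, score is each peptide's frequency after selection divided by its frequency in the input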
- ASSAY NOTES: SH2 binding enrichment of the phosphorylated peptide, bacterial display (enrichment ratio); higher = better substrate or ligand; peptides without Tyr show the background
Entries and their measured SH2 binding enrichment follow.
Give only the figure.

Look over these answered cases.
LSSETYVKSFT [F5_Y2149_M2148T_YF] = 0.587
GRSTFYWPSPR [GAGE12J_Y10_R13S_YF] = 1.26

Continue with the next sequence.
Which measured SH2 binding enrichment value corresponds to LDAFIYDAAVL [GRIN2A_Y730] ? 0.519

----------
- ASSAY TARGET: Jak2 (UniProt O60674)
- Sequence (O60674 whole entry, looked up): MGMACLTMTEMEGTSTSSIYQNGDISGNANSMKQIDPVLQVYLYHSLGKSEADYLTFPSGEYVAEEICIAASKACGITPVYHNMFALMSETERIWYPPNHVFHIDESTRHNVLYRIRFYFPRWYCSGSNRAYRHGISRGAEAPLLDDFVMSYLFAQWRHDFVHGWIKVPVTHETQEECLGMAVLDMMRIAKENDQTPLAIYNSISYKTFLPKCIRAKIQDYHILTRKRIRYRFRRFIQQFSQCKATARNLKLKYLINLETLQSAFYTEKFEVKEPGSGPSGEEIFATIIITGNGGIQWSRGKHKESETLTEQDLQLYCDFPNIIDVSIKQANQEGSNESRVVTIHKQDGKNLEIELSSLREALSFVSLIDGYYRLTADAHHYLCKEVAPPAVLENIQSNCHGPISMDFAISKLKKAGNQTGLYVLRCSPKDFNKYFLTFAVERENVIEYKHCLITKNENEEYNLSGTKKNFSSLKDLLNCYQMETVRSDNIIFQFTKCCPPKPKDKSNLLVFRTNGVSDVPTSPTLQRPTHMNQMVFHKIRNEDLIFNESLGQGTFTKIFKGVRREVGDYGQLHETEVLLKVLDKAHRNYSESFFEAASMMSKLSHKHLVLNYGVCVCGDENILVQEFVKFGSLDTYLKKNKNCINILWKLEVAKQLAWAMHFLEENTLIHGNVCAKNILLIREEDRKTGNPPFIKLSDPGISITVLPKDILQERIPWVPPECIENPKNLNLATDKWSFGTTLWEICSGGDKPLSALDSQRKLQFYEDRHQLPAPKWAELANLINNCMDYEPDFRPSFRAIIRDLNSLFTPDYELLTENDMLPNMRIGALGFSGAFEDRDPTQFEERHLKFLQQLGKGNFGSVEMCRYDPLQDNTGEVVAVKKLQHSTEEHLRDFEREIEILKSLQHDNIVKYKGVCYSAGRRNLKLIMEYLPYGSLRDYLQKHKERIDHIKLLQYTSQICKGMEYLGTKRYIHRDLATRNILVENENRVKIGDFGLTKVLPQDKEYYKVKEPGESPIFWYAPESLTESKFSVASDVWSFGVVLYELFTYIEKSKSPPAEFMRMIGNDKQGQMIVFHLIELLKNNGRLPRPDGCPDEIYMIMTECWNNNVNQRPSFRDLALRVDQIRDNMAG
- ASSAY NOTES: phosphorylation enrichment, bacterial display (enrichment ratio); higher = better substrate or ligand; peptides without Tyr show the background
Entries and their measured phosphorylation enrichment follow.
Give only the figure.

Look over these answered cases.
CTTIHYMFMCN [TP53_Y234_N235M_YF] = 1.02
QKDTFYGLRSL [IGSF10_Y126] = 1
EEGRVYVYHLS [ITGAE_Y549_R552H] = 0.998

For Jak2 (UniProt O60674), provide phosphorylation enrichment of RRGTGYTLPLP [MAGEC3_Y152_S155P] please. 1.01

For Jak2 (UniProt O60674), provide phosphorylation enrichment of LTSVKYLLSAT [GSDMC_Y26_P23S] please. 0.818

----------
- ASSAY TARGET: EPHB2 (UniProt P29323)
- Sequence (P29323 whole entry, looked up): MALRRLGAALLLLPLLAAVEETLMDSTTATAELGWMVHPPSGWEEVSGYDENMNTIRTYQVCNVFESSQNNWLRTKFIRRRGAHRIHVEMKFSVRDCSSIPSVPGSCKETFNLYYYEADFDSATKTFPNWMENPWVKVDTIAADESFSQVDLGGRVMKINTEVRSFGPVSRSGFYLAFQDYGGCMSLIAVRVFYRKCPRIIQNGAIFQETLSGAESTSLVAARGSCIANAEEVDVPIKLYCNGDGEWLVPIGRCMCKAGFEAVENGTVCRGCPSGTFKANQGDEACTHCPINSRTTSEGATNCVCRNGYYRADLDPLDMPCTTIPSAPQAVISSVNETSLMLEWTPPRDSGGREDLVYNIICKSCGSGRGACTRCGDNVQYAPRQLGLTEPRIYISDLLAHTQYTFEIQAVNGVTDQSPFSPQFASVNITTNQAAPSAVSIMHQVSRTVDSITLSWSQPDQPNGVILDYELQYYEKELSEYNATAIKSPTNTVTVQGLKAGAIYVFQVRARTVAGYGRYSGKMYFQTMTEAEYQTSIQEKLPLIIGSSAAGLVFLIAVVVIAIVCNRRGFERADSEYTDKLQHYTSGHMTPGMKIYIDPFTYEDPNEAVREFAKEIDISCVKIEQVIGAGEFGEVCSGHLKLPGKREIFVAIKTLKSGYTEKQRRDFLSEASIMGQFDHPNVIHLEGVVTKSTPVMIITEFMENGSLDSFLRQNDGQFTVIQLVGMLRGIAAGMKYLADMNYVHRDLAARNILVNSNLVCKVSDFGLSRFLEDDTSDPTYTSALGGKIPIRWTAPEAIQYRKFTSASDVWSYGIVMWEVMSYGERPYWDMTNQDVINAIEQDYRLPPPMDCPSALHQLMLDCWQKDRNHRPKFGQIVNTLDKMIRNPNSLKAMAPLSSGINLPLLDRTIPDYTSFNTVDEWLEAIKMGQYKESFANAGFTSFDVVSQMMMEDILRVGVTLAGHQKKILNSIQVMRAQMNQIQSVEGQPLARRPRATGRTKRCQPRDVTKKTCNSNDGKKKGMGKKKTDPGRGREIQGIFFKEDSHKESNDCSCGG
- ASSAY NOTES: phosphorylation enrichment, bacterial display (enrichment ratio); higher = better substrate or ligand; peptides without Tyr show the background
RESULT TYPE: phosphorylation enrichment

Look over these answered cases.
QVQQIYSDSDL [MIB1_Y376_R371Q] = 2.35
GRQGIYTENER [GPR143_Y231] = 0.427
VGTKRYMAPKV [ACVRL1_Y375_E379K] = 0.282

Which measured phosphorylation enrichment value corresponds to FSVDGYDSSVR [KCNQ1_Y461] ? 0.513

Which measured phosphorylation enrichment value corresponds to RREQDYTNLPS [CSF1R_Y923_R921Q] ? 0.468

Which measured phosphorylation enrichment value corresponds to KTTILYKLKLG [ARF1_Y35] ? 0.411

Which measured phosphorylation enrichment value corresponds to RTLIRYANLSN [BEST1_Y131_G135S] ? 0.71

Which measured phosphorylation enrichment value corresponds to VFLGAYDHFLP [SLC22A5_Y486_R488H_YF] ? 3.32

Which measured phosphorylation enrichment value corresponds to QVKEQYQDVPM [PKP2_Y659_K654Q] ? 0.762

Which measured phosphorylation enrichment value corresponds to DAVCYYRMENA [NPHS2_Y195_I192V] ? 0.588

----------
- System: Fer (mouse)
- ASSAY NOTES: phosphorylation enrichment, bacterial display (enrichment ratio); higher = better substrate or ligand; peptides without Tyr show the background
Entries and their measured phosphorylation enrichment follow.
Give only the figure.

PAQAAYQKVVA [HBB_Y131_V127A] = 0.477
RETSLYKACER [ASB2_Y162_P160S] = 0.762
LIDTVYSSSSA [OR4C12_Y71] = 0.96
SVTCTYSPALH [TP53_Y126_N131H] = 0.492
GTFVIYVRFGG [FLNB_Y1687_YF] = 0.4
GNHISYYQSDG [CACNA1C_Y1757_V1755I] = 0.367

Continue with the next sequence.
For Fer (mouse), provide phosphorylation enrichment of AVARPYHIQKW [ACSBG1_Y677_A673V] please. 0.332
